- Assay Target: T1, human IL6R (human, UniProt P08887 20-358, limits assumed)
- T1 construct: Antigen of the Biacore experiments
- T1 sequence (looked up): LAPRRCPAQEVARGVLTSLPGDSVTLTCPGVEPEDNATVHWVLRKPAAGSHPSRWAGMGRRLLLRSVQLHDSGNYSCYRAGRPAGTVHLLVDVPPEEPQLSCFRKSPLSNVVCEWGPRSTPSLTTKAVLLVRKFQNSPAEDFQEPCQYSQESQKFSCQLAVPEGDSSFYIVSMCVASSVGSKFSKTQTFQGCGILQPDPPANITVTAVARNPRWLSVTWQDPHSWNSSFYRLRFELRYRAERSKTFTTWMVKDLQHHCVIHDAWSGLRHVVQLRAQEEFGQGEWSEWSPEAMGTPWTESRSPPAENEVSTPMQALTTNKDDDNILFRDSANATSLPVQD
- Assay Overview: SPR (Biacore), periplasmic extract
Each record's class is read off its koff using these ranges: lower bin: < 0.0004 s⁻¹; middle bin: ≥ 0.0004 s⁻¹ and < 0.0007 s⁻¹; upper bin: ≥ 0.0007 s⁻¹

Answered cases to consult:
Binder	Group
IL6R65PMP7C4 (VHH, Also expressed in E. coli and purified via IMAC) VHH: EVQLVESGGGLVQPGGSLRLSCAASGTTFRINVMAWYRQAPGKGRELVAGIITNGSTSYADSVKGRFTISRDNAKNTLYLQMNSLRPEDTAVYYCAFVTTNSDYDLGRDYWGQGTLVTVSS	middle bin
IL6R65PMP11F1 (VHH) VHH: EVQLVESGGGLVQPGGTLRLSCAASGSTFKINVMAWYRQAPGKGRELVAGVITNGSTTYADSVKGRFTISRDNAKNTLYLQMNSLRPEDTAVYYCAFVTTNSDYDLGRDYWGQGTLVTVSS	lower bin

Kindly identify the class of IL6R65PMP13A2 (VHH) VHH: EVQLVESGGGLVQPGGSLRLSCAASGTIFRVNVMAWYRQAPGKGRELVAAIITDGTTTYADSVKGRFTISRDNAKNTLYLQMNSLRPEDTAVYYCAFVTTNSDYDLGRDYWGQGTLVTVSS .
middle bin

Kindly identify the class of IL6R65PMP11F3 (VHH) VHH: EVQLVESGGGLVQPGGSLRLSCAASGTIFRINVMAWYRQAPGKGRELVAAIISGGSTTYADSVKGRFTISRDNAKNTLYLQMNSLRPEDTAVYYCAFVTTNSDYDLGRDYWGQGTLVTVSS .
middle bin

Kindly identify the class of IL6R65PMP12C7 (VHH) VHH: EVQLVESGGGLVQPGGSLRLSCAASGSVYRINAMGWYRQAPGKGRELVAGLISAGSTNYADSVKGRFTISRDNAKNTLYLQMNSLRPEDTAVYYCAFVTTNSDYDLGRDYWGQGTLVTVSS .
upper bin
